Tested on: G-protein
Assay: Functional [35S]GTPγS binding assay on rat brain membrane homogenates
Format: biochemical
Conditions: rat brain membrane homogenates; basal activity = 100%
Measured Attribute: Emax ± S.E.M. (maximal G-protein efficacy) (%)
# value in %; strip the unit string

Molecule	Value Observed
Cc1c(C(=O)NC2CCCCC2)nn(-c2ccc(Cl)cc2Cl)c1-n1cccc1 [Compound 4]	55.95

So what Emax ± S.E.M. (maximal G-protein efficacy) did Cc1c(C(=O)N2CCN(C(=O)OCc3ccccc3)CC2)nn(-c2ccc(Cl)cc2Cl)c1-n1cccc1 [Compound 2] get with G-protein? 22.95

Would you kindly repeat that for Cc1c(C(=O)NC2CCN(C(=O)[C@H](Cc3ccccc3)NC(=O)CNC(=O)[C@@H](C)NC(=O)[C@@H](N)Cc3ccc(O)cc3)CC2)nn(-c2ccc(Cl)cc2Cl)c1-n1cccc1 [Compound 9] ? 36.62

Again, but for Cc1c(C(=O)NN2CCCCC2)nn(-c2ccc(Cl)cc2Cl)c1-n1cccc1 [Compound 1] 26

Also, Cc1c(C(=O)NN2CCCCC2)nn(-c2ccc(Cl)cc2Cl)c1-c1ccc(Cl)cc1 [Rimonabant, reference compound] please. 17.5

Field entry: Cc1c(C(=O)NC2CCNCC2)nn(-c2ccc(Cl)cc2Cl)c1-n1cccc1 [Compound 5] 99.2

Next molecule up: Cc1c(C(=O)NC2CCN(C(=O)OC(C)(C)C)CC2)nn(-c2ccc(Cl)cc2Cl)c1-n1cccc1 [Compound 3] 12.78

====

Molecular target: G-protein
Experiment: Functional [35S]GTPγS binding assay on rat brain membrane homogenates
Type: biochemical
Conditions: rat brain membrane homogenates; logarithm of EC50, negative sign printed
Measured Attribute: LogEC50 ± S.E.M. (ligand potency)
# output: bare number, no unit

Compound	Measured Attribute	Value Observed
Cc1c(C(=O)NC2CCN(C(=O)OC(C)(C)C)CC2)nn(-c2ccc(Cl)cc2Cl)c1-n1cccc1	LogEC50 ± S.E.M. (ligand potency)	−5.57
Cc1c(C(=O)NC2CCN(C(=O)[C@H](Cc3ccccc3)NC(=O)CNC(=O)[C@@H](C)NC(=O)[C@@H](N)Cc3ccc(O)cc3)CC2)nn(-c2ccc(Cl)cc2Cl)c1-n1cccc1	LogEC50 ± S.E.M. (ligand potency)	−5.44
Cc1c(C(=O)NN2CCCCC2)nn(-c2ccc(Cl)cc2Cl)c1-c1ccc(Cl)cc1 [Rimonabant, reference compound]	LogEC50 ± S.E.M. (ligand potency)	−5.65
Cc1c(C(=O)N2CCN(C(=O)OCc3ccccc3)CC2)nn(-c2ccc(Cl)cc2Cl)c1-n1cccc1	LogEC50 ± S.E.M. (ligand potency)	−5.81
Cc1c(C(=O)NC2CCCCC2)nn(-c2ccc(Cl)cc2Cl)c1-n1cccc1	LogEC50 ± S.E.M. (ligand potency)	−5.72

Below: the item to evaluate.
What value of LogEC50 ± S.E.M. (ligand potency) on G-protein does `Cc1c(C(=O)NN2CCCCC2)nn(-c2ccc(Cl)cc2Cl)c1-n1cccc1` have? −5.78

====

Biological target: MOR (Rattus norvegicus, UniProt P33535)
Construct: a: performed in rat whole brain membrane homogenates
Sequence (P33535 whole entry): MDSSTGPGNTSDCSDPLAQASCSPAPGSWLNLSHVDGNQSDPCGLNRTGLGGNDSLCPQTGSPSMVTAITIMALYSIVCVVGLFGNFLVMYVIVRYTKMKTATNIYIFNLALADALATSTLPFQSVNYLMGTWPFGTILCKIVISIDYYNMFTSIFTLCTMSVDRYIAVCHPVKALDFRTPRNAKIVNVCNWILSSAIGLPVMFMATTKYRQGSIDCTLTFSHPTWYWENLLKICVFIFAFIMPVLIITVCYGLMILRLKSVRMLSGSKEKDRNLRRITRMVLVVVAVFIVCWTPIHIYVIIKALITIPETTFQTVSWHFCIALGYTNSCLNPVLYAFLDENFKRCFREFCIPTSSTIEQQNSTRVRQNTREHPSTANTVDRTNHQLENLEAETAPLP
Experiment: Radioligand competition binding with [3H]DAMGO
Conditions: rat whole brain membrane homogenates; Cheng-Prusoff
Measured Attribute: Ki
The reply should read as a number followed by its unit.

Compound	Ki
C[C@@H](NC(=O)[C@@H](N)Cc1ccc(O)cc1)C(=O)NCC(=O)N[C@@H](Cc1ccccc1)C(N)=O [Compound 10, Tyr-D-Ala-Gly-Phe-NH2, reference compound]	1 nM

Attention now turns to another entry.
Give the measured Ki of `Cc1c(C(=O)NC2CCN(C(=O)[C@H](Cc3ccccc3)NC(=O)CNC(=O)[C@@H](C)NC(=O)[C@@H](N)Cc3ccc(O)cc3)CC2)nn(-c2ccc(Cl)cc2Cl)c1-n1cccc1` . 34.4 nM

====

Biological target: G-protein
Assay: Functional [35S]GTPγS binding assay on rat brain membrane homogenates
Format: biochemical
Details: rat brain membrane homogenates
Measured Attribute: pEC50
// field semantics: pEC50 = negative decimal log of concentration (mol/L)

Need pEC50, item `Cc1c(C(=O)N2CCN(C(=O)OCc3ccccc3)CC2)nn(-c2ccc(Cl)cc2Cl)c1-n1cccc1` 5.81

Can you handle `Cc1c(C(=O)NN2CCCCC2)nn(-c2ccc(Cl)cc2Cl)c1-n1cccc1` next? 5.79

Let us now turn to Cc1c(C(=O)NN2CCCCC2)nn(-c2ccc(Cl)cc2Cl)c1-c1ccc(Cl)cc1 [Rimonabant, reference compound] 5.66

====

Target: DOR (Rattus norvegicus, UniProt P33533)
Construct: a: performed in rat whole brain membrane homogenates; from tissue; host or cells: Wistar rat whole brain membrane homogenate
Sequence (P33533 whole entry): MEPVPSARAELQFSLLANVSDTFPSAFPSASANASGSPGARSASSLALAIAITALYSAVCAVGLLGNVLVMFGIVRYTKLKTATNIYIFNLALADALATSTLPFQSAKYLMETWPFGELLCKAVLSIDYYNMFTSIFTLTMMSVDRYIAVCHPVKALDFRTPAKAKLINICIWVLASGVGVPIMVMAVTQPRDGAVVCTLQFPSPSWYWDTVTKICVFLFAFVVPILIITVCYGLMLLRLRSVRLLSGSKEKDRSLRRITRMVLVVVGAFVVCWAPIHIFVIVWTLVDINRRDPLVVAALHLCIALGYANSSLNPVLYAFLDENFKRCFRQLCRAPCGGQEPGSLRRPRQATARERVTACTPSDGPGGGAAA
Experiment: Radioligand competition binding with [3H]IleDelt II
Measured Attribute: pIC50
Notebook: values listed as pIC50 are -log10 of the concentration (mol/L).

# query: pIC50 of entry C[C@@H](NC(=O)[C@@H](N)Cc1ccc(O)cc1)C(=O)NCC(=O)N[C@@H](Cc1ccccc1)C(N)=O [Compound 10, Tyr-D-Ala-Gly-Phe-NH2, reference compound] 6.50

====

Target: G-protein
Assay: Functional [35S]GTPγS binding assay on rat brain membrane homogenates
Format: biochemical
Measured Attribute: EC50 (nM)
Supply the numeric figure in nM, leaving out any unit text.

Please look up its EC50: C[C@@H](NC(=O)[C@@H](N)Cc1ccc(O)cc1)C(=O)NCC(=O)N[C@@H](Cc1ccccc1)C(N)=O [Compound 10, Tyr-D-Ala-Gly-Phe-NH2, reference compound] 81.3

====

Target: cannabinoid receptors (CBR) (Rattus norvegicus, UniProt P20272)
Construct: a: performed in rat whole brain membrane homogenates; from tissue; host or cells: Wistar rat whole brain membrane homogenate
Sequence (P20272 whole entry): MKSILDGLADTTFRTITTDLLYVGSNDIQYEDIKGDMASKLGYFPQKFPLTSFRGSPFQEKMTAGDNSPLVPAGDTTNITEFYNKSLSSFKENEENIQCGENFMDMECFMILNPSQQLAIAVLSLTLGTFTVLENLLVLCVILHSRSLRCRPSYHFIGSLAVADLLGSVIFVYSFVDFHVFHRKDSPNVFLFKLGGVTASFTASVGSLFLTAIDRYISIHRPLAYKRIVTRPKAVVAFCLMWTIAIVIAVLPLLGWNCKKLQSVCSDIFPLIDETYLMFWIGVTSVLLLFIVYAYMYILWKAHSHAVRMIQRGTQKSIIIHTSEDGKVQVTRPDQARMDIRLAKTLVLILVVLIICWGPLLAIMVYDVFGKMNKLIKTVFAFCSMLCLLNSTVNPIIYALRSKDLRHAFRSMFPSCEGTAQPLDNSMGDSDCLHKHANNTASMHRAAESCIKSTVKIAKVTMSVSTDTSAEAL
Assay: biochemical
Type: binding
Measured Attribute: IC50
Please format your answer as a value with the unit trailing.

>>> print(df.to_string())
                                 mol_smiles                               test_target  measured_attribute  value_observed
0  Cc1c(C(=O)NN2CCCCC2)nn(-c2ccc(Cl)cc2Cl)c1-n1cccc1  cannabinoid receptors (CBR) (Rattus norvegicus, UniProt P20272)                IC50          195 nM

API: the following record is the query input.
Can you share its IC50? I mean this compound: `Cc1c(C(=O)NC2CCCCC2)nn(-c2ccc(Cl)cc2Cl)c1-n1cccc1` 575 nM

====

Molecular target: DOR (Rattus norvegicus, UniProt P33533)
Construct: a: performed in rat whole brain membrane homogenates; from tissue; host or cells: Wistar rat whole brain membrane homogenate
Experiment: Radioligand competition binding with [3H]IleDelt II
Measured Attribute: pKi
When answering, recall that pKi equals minus log10 of the concentration in mol/L, and write that number alone.

Any idea what pKi was measured for C[C@@H](NC(=O)[C@@H](N)Cc1ccc(O)cc1)C(=O)NCC(=O)N[C@@H](Cc1ccccc1)C(N)=O [Compound 10, Tyr-D-Ala-Gly-Phe-NH2, reference compound] ? 6.97

====

Molecular target: cannabinoid receptors (CBR) (Rattus norvegicus, UniProt P20272)
Construct: a: performed in rat whole brain membrane homogenates; from tissue; host or cells: Wistar rat whole brain membrane homogenate
Test: biochemical
Assay type: binding
Details: rat whole brain membrane homogenates; Cheng-Prusoff; read-out: Ki, [3H]WIN55,212 (CBR)
The following compounds are shown together with reported pKi values.
// field semantics: pKi = negative decimal log of concentration (mol/L)

Mol Smiles	pKi
Cc1c(C(=O)NC2CCN(C(=O)[C@H](Cc3ccccc3)NC(=O)CNC(=O)[C@@H](C)NC(=O)[C@@H](N)Cc3ccc(O)cc3)CC2)nn(-c2ccc(Cl)cc2Cl)c1-n1cccc1	5.28
Cc1c(C(=O)NC2CCN(C(=O)OC(C)(C)C)CC2)nn(-c2ccc(Cl)cc2Cl)c1-n1cccc1	6.71

// moving on: another record for pKi
Form field: reported pKi of `Cc1c(C(=O)N2CCN(C(=O)OCc3ccccc3)CC2)nn(-c2ccc(Cl)cc2Cl)c1-n1cccc1` 6.15

====

Molecular target: cannabinoid receptors (CBR) (Rattus norvegicus, UniProt P20272)
Construct: a: performed in rat whole brain membrane homogenates; from tissue; host or cells: Wistar rat whole brain membrane homogenate
Assay: biochemical
Format: binding
In this section, each of the compounds is paired with its reported Ki.
Reply numerically in µM, unit not repeated.

Which measured Ki value corresponds to `Cc1c(C(=O)NC2CCCCC2)nn(-c2ccc(Cl)cc2Cl)c1-n1cccc1` ? 0.37

Then this compound: `Cc1c(C(=O)NN2CCCCC2)nn(-c2ccc(Cl)cc2Cl)c1-n1cccc1` 0.126

====

Target: G-protein
Assay: Functional [35S]GTPγS binding assay on rat brain membrane homogenates
Assay type: biochemical
Details: rat brain membrane homogenates
Property: EC50; scope: individual compounds
Numeric answer plus unit only.

Compound	Measured Attribute	Value Observed
Cc1c(C(=O)NC2CCN(C(=O)OC(C)(C)C)CC2)nn(-c2ccc(Cl)cc2Cl)c1-n1cccc1 [Compound 3]	EC50	2690 nM
Cc1c(C(=O)NC2CCCCC2)nn(-c2ccc(Cl)cc2Cl)c1-n1cccc1 [Compound 4]	EC50	1870 nM

// next entry
Query EC50 on G-protein for Cc1c(C(=O)NC2CCN(C(=O)[C@H](Cc3ccccc3)NC(=O)CNC(=O)[C@@H](C)NC(=O)[C@@H](N)Cc3ccc(O)cc3)CC2)nn(-c2ccc(Cl)cc2Cl)c1-n1cccc1 [Compound 9] 3600 nM
